# Assay Name: qHTS for Inhibitors of Plasmodium falciparum (GB4) proliferation (AID 504315); further: nearly all actives have a fitted effect of over 50% in size
# Reported Conditions: P. falciparum GB4 in erythrocytes, SYBR Green DNA, 72 h; series mostly up to 6.7 µM
Records with an inconclusive call do not appear. Activity calls are given as the source filed them. The call rests on the fitted dose curve; in most records, active means well fitted inhibition curve with a large enough effect; inconclusive means small, poorly fitted or top-dose-only effect, or effect the other way; inactive means flat fitted curve, though single readings scatter.
API: response.call in active, inactive

{"Compound": "C=CC1=C2C=C(C3CC3)N(Cc3ccco3)C=C2C(=O)C(C)(OC(=O)c2ccco2)C1=O (stereo not given)", "Answer Label": "inactive"}
{"Compound": "CCCCc1nc2c(c3c1C[C@H](C)OC3)CN(C(=O)NCCCC(=O)OCC)CC2", "Answer Label": "inactive"}
{"Compound": "CCOC(=O)OC[C@H]1O[C@H](c2ccccc2)C=C[C@H]1OC(=O)OCC", "Answer Label": "inactive"}

Exercise: Check the results log: what was the call for CCN1C(=O)N[C@@H](c2cccs2)C(C(C)=O)=C1C ?
Key: inactive

Exercise: Check the results log: what was the call for COC(=O)[C@@H]1CC[C@H](C)[C@@H](c2ccc(C)cc2)N1C(=O)c1ccc(C=NO[C@@H](C)c2cc(-c3c(C)cc(C)cc3C)no2)cc1 ?
Key: active
